Data provenance is patent US20140235701.

- ASSAY TARGET: NGF (nerve growth factor) (Homo sapiens, UniProt P01138 P01138:122-241)
- Sequence (P01138 122-241, one chain of several): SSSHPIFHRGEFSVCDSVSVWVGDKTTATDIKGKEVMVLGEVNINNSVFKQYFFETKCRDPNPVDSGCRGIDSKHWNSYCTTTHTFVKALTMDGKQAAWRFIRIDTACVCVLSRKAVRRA
- ASSAY TEXT: cell_activity; neurite; TF-1 >10
- CONDITIONS USED: tags: R&D Systems; chain copies: 2
EXPERIMENTAL READOUT: IC50 (nM)

binder="GGGUCCUGCUGCGUAGUUUCCUUCUGCGUGGUUGUUACCC (ssRNA, 2'-F C/U, dA, 2'-OH G) [SEQ ID NO: 86]" reading_unit=nM numeric_readout=0.834
